# ASSAY_TARGET: GlcNAc(b1-3)Gal(b1-4)GlcNAc(b1-3)Gal(b1-4)GlcNAc(b1-3)Gal(b1-4)GlcNAc(b1-3)Gal(b1-4)GlcNAc(b1-2)Man(a1-3)[GlcNAc(b1-3)Gal(b1-4)GlcNAc(b1-3)Gal(b1-4)GlcNAc(b1-3)Gal(b1-4)GlcNAc(b1-3)Gal(b1-4)GlcNAc(b1-2)Man(a1-6)]Man(b1-4)GlcNAc(b1-4)[Fuc(a1-6)]GlcNAc
# TEST_PROTOCOL: glycan array binding signal (z-score within array); higher = stronger binding
# CONDITION: glycan notation: IUPAC condensed, linker removed
This is one part of a sample in which the strongest signals are shown more often than they occur.
Could you label it Yes if measured glycan array binding signal (z-score) is -0.2 or higher, and No otherwise?

| BINDER | QUALITATIVE_LABEL |
| --- | --- |
| FliC (Clostridium difficile) (protein) MRVNTNVSALIANNQMGRNVNGQSKSMEKLSSGVRIKRAADDAAGLAISEKMRAQIKGLDQAGRNVQDGISVVQTAEGSLEETGNILQRMRTLSLQSANEINNTEEREKIADELTQLKDEIERISSSTEFNGKKLLDGTSSTIRLQVGASYGTNVSGTSNNNNEIKIQLVNTASIMASAGITTASIGSMKAGGTTGTDAAKTMVSSLDAALKSLNSSRAKLGAQQNRLESTQNNLNNTLENVTAAESRIRDTDVASEMVNLSKMNILVQASQSMLAQANQQPQGVLQLLG | No |
| Clone646PsrP (Streptococcus pneumoniae) (protein) MDHHHHHHHHASENLYFQGAPAINASLNIAKSETKVYTGEGVDSVYRVPIYYKLKVTNDGSKLTFTYTVTYVNPKTNDLGNISSMRPGYSIYNSGTSTQTMLTLGSDLGKPSGVKNYITDKNGRQVLSYNTSTMTTQGSGYTWGNGAQMNGFFAKKGYGLTSSWTVPITGTDTSFTFTPYAARTDRIGINYFNGGGKVVESSTTSQSLSQSKSLSVSAS | No |
| SJCP1084 (Schistosoma japonicum) (protein) MRIINLVIISTALLLINLLQTKSQANGEDTKNGTPDDPGLTKSTELKVEVQALLKDKKTNMRVKWNENLLDNTKPEYHNLRDEACELLLQIVRSVVPLSQDDGECKDVTFTKYVVGTKDGAVNVKLTITFKDSVAINQKPMDLKLKLENDFKNLQSESTLKATKPTFTVKVEKRLIPISKPQTTPPTTAKNDASKENVGDIGGEDSTVPTAAPATAASANEEKDEGDKDNKDSQHPNVLTSNVNDRNLIIALVALMILAIGVALTAAVKQR | No |
| LecB PA7 (Pseudomonas aeruginosa) (protein) MATQGVFTLPANTRFGVTAFANSSATQTVKVLVNNETAATFTGQSTNNAVIGSQVLNSGGGGKVQIQVSVNGRSSDLVSAQVILANELNVALVGSEDSTDNDYNDAVVVINWPLG | Yes |
